Provenance of the data: the Immune Epitope Database (IEDB)

Measured target: HLA-B*08:01
Experiment notes: IEDB peptide-MHC binding, purified MHC/competitive/radioactivity; filed as Kd, often an IC50 or EC50 that approximates it; bounds were set here for any values at or beyond the usual limits of such assays
Experimental context: source organism: Vaccinia virus WR
Reported endpoint: pKd
// returns pKd (minus log10 of molar concentration), number only

# example entries with known answers
{"columns": ["Residue codes", "Reported endpoint", "Assay value"],
 "data": [
  ["FPRSMLSIF", "pKd", 8.01],
  ["ALLSRFFNM", "pKd", 8.53],
  ["MVHIYFVSL", "pKd", 8.87],
  ["SINVKHTSV", "pKd", 7.88],
  ["HLRVLFSIF", "pKd", 8.33]
]}

Exercise: Fill blank: measured pKd of the sequence YNKQSLVSL is ____.
Key: 7.52
